meta.source: patent US20090291081A1

Target: T1, human IL-1α (human, UniProt P01583 113-271)
T1 sequence (looked up): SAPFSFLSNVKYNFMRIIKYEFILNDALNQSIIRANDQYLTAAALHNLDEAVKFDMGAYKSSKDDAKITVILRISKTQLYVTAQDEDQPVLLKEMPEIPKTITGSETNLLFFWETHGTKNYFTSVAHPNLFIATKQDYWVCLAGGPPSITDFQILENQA
Assay: cell-based or functional assay
observable: IL-1α IC50 (nM)
Kindly answer with a numeric value in nM, unit omitted.

Some solved cases for reference:
[Q] Quick one: IL-1α IC50 for ABT2-108-533x/ABT1-122 hu IgG1/K wt (bispecific antibody, V domains shown) VH: EVQLLESGGGLVQPGGSLRLSCAASGFTFADEGMMWVRQAPGKGLEWVSRIGQDGKNTYYADSVKGRFTISRDNSKNTLYLQMNSLRAEDTAVYYCAKYTGRILGHHLFDYWGQGTLVTVSS VL: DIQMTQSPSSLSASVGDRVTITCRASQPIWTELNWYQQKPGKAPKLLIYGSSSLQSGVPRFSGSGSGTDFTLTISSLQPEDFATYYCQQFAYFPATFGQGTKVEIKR ?
[A] 1000

[Q] Moving on to ABT2-108/ABT1-122-511 hu IgG1/K wt (bispecific antibody, V domains shown) VH: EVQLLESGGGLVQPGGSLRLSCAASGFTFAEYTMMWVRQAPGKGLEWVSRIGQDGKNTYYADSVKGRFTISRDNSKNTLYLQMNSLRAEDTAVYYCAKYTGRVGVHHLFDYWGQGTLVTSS VL: DIQMTQSPSSLSASVGDRVTITCRASQPIWTELNWYQQKPGKAPKLLIYGSSSLQRGVPSRFSGSGSGTDFTLTISSLQPEDFATYYCKQFAYFPATFGQGTKVEIKR
[A] 40

[Q] Moving on to ABT2-108-504/ABT1-122 hu IgG1/K wt (bispecific antibody, V domains shown) VH: EVQLLESGGGLVQPGGSLRLSCAASGFTFADEGMMWVRQAPGKGLEWVSRIGQDGKNTYYADSVKGRFTISRDNSKNTLYLQMNSLRAEDTAVYYCAKYTGRVGVHHLFDYWGQGTLVTVSS VL: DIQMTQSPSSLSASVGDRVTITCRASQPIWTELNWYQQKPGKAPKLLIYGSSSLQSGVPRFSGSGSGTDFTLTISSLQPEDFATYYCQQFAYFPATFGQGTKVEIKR
[A] 1500

[Q] Moving on to ABT2-108-538x/ABT1-221 huIgG1/K wt (bispecific antibody, V domains shown) VH: EVQLLESGGGLVQPGGSLRLSCAASGFTFADEGMMWVRQAPGKGLEWVSRITYSGKNTYYADSVKGRFTISRDNSKNTLYLQMNSLRAEDTAVYYCAKYTGRILGHHLFDYWGQGTLVTVSS VL: DIQMTQSPSSLSASVGDRVTITCRASQDIWPYLMWYQQKPGKAPKLLIYYSSMLQSGVPSRFSGSGSGTDFTLTISSLQPEDFATYYCQQFRRWPYTFGQGTKVEIKR
[A] 200

Now for the binder whose IL-1α IC50 we want.
[Q] Quick one: IL-1α IC50 for ABT2-108-521/ABT1-95-A3 hu IgG1 wt (bispecific antibody, V domains shown) VH: EVQLLESGGGLVQPGGSLRLSCAASGFTFAEYTMMWVRQAPGKGLEWVSRIGQDGKNTYYADSVKGRFTISRDNSKNTLYLQMNSLRAEDTAVYYCAKYTGRILGHHLFDYWGQGTLVTVSS VL: DIQMTQSPSSLSASVGDRVTITCRASKPGVRNMRWYQQKPGKAPKLLIYSVSYLEPGVPSRFSGSGSGTDFTLTISSLQPEDFATYHCLQGYRWPPTFGQGTKVEIKR ?
[A] 0.027
